target: HIV integrase (Human immunodeficiency virus type 1 group M subtype B, UniProt P12497, F1332H); construct: HIV integrase full length gene; test: Determination of enzyme (HIV integrase) inhibitory activity; conditions: recombinant HIV integrase (F185H), strand transfer ELISA, absorbance at 450 nm
Structures can show the parent of a compound that is named as a salt.
Test Readout: IC50

> print(dat)
                                    compound  test.readout  experimental.result
 1  COC(=O)CNC(=O)c1cn2ccn(Cc3cccc(Cl)c3)c(=O)c2c(O)c1=O          IC50         10 to 100 nM
 2  CC(C)c1cn(Cc2ccc(F)c(Cl)c2)c(=O)c2c(O)c(=O)ccn12 [Example 92, hydrochloride]          IC50              < 10 nM
 3  CNC(=O)c1cc(=O)c(O)c2n1CCN(Cc1ccc(Cl)c(Cl)c1)C2=O          IC50         10 to 100 nM
 4  N#Cc1cn(Cc2cccc(Cl)c2)c(=O)c2c(O)c(=O)ccn12          IC50         10 to 100 nM
 5  O=C1c2c(O)c(=O)c(-c3nccs3)cn2CCN1Cc1ccc2ccccc2c1          IC50              < 10 nM
 6      O=C1c2c(O)c(=O)ccn2CCN1Cc1ccc(Cl)cc1          IC50         10 to 100 nM
 7  CNC(=O)c1cn2c(c(O)c1=O)C(=O)N(Cc1ccc(F)c(Cl)c1)CC2          IC50         10 to 100 nM
 8  CS(=O)(=O)c1cn2ccn(Cc3cccc(Cl)c3)c(=O)c2c(O)c1=O          IC50         10 to 100 nM
 9  O=C1c2c(O)c(=O)c(-c3nccs3)cn2CCN1CCCCc1ccccc1 [Example 338, hydrochloride]          IC50         10 to 100 nM
10  O=C1c2c(O)c(=O)c(-c3nccs3)cn2CCN1Cc1ccc(Cl)c(Cl)c1          IC50              < 10 nM
11  CC(C)C(=O)c1cn2ccn(Cc3ccc(F)cc3)c(=O)c2c(O)c1=O [Example 345, hydrochloride]          IC50              < 10 nM
12  Cc1cc(=O)c(O)c2n1CCN(Cc1ccc(Cl)c(Cl)c1)C2=O          IC50         10 to 100 nM
13  Cc1cn2ccc(=O)c(O)c2c(=O)n1Cc1ccc(Cl)c(Cl)c1          IC50         10 to 100 nM
14    O=c1ccn2ccn(CCCc3cccc(Cl)c3)c(=O)c2c1O          IC50         10 to 100 nM
15  O=C(Nc1cn2ccn(Cc3ccc(F)cc3)c(=O)c2c(O)c1=O)c1cccnc1 [Example 320, trifluoroacetate]          IC50              < 10 nM
16  CC(C)(C)C(=O)c1cn2c(c(O)c1=O)C(=O)N(Cc1cccc(Cl)c1F)CC2 [Example 367, hydrochloride]          IC50         10 to 100 nM
17  CSCc1cc(=O)c(O)c2n1CCN(Cc1ccc(Cl)c(Cl)c1)C2=O          IC50         10 to 100 nM

Provenance of the data: patent US7211572B2
